Overview of recorded Inh (PKA) for various molecules
System: PRKACA-PRKAR2A interaction (SmBiT-PRKACA / LgBiT-PRKAR2A), protein kinase A
Set-up: NanoLuc complementation counter-screen in cell extract, PRKACA with PRKAR2A, loss of luminescence, detects NanoLuc interference
Conditions: counter-screen for NanoLuc interference; 0.5 h, 20 µM; inhibitor
Just the number in %, nothing appended.

MOLECULE | RESULT_UNITS | Inh (PKA)
CCOC(=O)c1ccc(N2NC(=O)/C(=C/c3ccc([N+](=O)[O-])o3)C2=O)cc1 | % | 36.3

Query :: Need Inh (PKA) of `Cc1ccc(-c2csc3ncnc(SCCC(=O)O)c23)cc1` , thanks.
Result :: 12.61

Query :: Field entry: `NS(=O)(=O)NCCNc1nonc1C(=Nc1ccc(F)c(Br)c1)NO`
Result :: 11.46
